biological target: VcSialidase (Vibrio cholerae serotype O1, UniProt P0C6E9)
Sequence (P0C6E9 25-781): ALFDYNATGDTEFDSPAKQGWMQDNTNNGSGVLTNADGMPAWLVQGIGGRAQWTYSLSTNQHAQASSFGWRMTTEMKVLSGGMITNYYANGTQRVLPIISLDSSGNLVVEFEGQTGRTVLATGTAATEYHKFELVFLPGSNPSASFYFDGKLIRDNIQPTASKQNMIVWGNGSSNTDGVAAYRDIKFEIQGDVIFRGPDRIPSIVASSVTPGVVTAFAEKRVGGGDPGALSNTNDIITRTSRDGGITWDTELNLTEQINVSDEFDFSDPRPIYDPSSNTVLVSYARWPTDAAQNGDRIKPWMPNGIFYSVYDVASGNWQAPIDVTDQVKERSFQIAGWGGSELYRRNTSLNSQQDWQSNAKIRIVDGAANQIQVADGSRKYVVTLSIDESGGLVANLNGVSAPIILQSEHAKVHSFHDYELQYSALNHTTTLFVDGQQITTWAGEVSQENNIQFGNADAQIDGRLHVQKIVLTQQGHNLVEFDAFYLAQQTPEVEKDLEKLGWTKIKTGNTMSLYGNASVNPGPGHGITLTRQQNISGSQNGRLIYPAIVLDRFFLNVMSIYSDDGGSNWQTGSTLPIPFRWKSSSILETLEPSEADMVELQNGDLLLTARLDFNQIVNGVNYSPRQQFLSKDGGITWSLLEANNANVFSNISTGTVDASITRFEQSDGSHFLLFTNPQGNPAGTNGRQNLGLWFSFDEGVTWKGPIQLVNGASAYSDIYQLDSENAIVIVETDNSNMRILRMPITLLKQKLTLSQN
pIC50: −log10 of the molar value.
Property Name: pIC50

For the molecule shown here, O=C(N[C@H]1[C@H]2O[C@@](C(=O)O)(C[C@@H]1O)O[C@@H]2[C@H](O)CO)C(F)(F)F [compound 2] , give the reported pIC50.
3.00 to 3.30
